Recorded Activity by entry
test system: Plasmodium yoelii; assay: Antimalarial activity against chloroquine, mefloquine and halofantrine-resistant Plasmodium yoelii infected in Swiss mouse assessed as mouse survival at 12 mg/kg, po for 4 days measured on day 28 relative to control; type: functional
Your answer should be a plain number; it is taken to be in %.

Past entries and their recorded results:
* C[C@@H]1CC[C@H]2[C@@H](C)C(=O)N(/N=C/c3ccc(-c4ccccc4)cc3)[C@@H]3O[C@@]4(C)CC[C@@H]1[C@@]23OO4 | 100
* C[C@@H]1CC[C@H]2[C@@H](C)C(=O)N(NCc3ccc(C(F)(F)F)cc3)[C@@H]3O[C@@]4(C)CC[C@@H]1[C@@]23OO4 | 20

Could you now look at the following compound, please?
Prompt: Report Activity from Plasmodium yoelii testing of C[C@@H]1CC[C@H]2[C@@H](C)C(=O)N(NCc3ccc(Cl)cc3)[C@@H]3O[C@@]4(C)CC[C@@H]1[C@@]23OO4
Completion: 80

* * *

tested on: Plasmodium yoelii; test: Antimalarial activity against chloroquine, mefloquine and halofantrine-resistant Plasmodium yoelii infected in Swiss mouse assessed as mouse survival at 12 mg/kg, po for 4 days measured on day 28 relative to control; format: functional
Recorded Activity by entry
Your answer should be a plain number; it is taken to be in %.

Past entries and their recorded results:
• C[C@@H]1CC[C@H]2[C@@H](C)C(=O)N(NC(=O)c3ccc(Br)cc3)[C@@H]3O[C@@]4(C)CC[C@@H]1[C@@]23OO4 = 0
• C[C@@H]1CC[C@H]2[C@@H](C)C(=O)N(NCc3ccc(F)cc3)[C@@H]3O[C@@]4(C)CC[C@@H]1[C@@]23OO4 = 20

Prompt: Read the entry C[C@@H]1CC[C@H]2[C@@H](C)C(=O)N(NCc3ccc(-c4ccccc4)cc3)[C@@H]3O[C@@]4(C)CC[C@@H]1[C@@]23OO4 and write its reported Activity.
Completion: 100

Prompt: Read the entry C[C@@H]1CC[C@H]2[C@@H](C)C(=O)N(/N=C/c3ccc4c(c3)Cc3ccccc3-4)[C@@H]3O[C@@]4(C)CC[C@@H]1[C@@]23OO4 and write its reported Activity.
Completion: 100

Prompt: Read the entry C[C@@H]1CC[C@H]2[C@@H](C)C(=O)N(OCc3ccc(-c4ccccc4)cc3)[C@@H]3O[C@@]4(C)CC[C@@H]1[C@@]23OO4 and write its reported Activity.
Completion: 60

Prompt: Read the entry C[C@@H]1CC[C@H]2[C@@H](C)C(=O)N(NC(=O)c3ccc(-c4ccccc4)cc3)[C@@H]3O[C@@]4(C)CC[C@@H]1[C@@]23OO4 and write its reported Activity.
Completion: 100

* * *

tested on: Plasmodium yoelii; assay: Antimalarial activity against chloroquine, mefloquine and halofantrine-resistant Plasmodium yoelii infected in Swiss mouse assessed as mouse survival at 6 mg/kg, po for 4 days measured on day 28 relative to control; format: functional
measured.property: Activity (%)
Your answer should be a plain number; it is taken to be in %.

- C[C@@H]1CC[C@H]2[C@@H](C)C(=O)N(/N=C/c3ccc(C(F)(F)F)cc3)[C@@H]3O[C@@]4(C)CC[C@@H]1[C@@]23OO4: 0
- C[C@@H]1CC[C@H]2[C@@H](C)C(=O)N(NC(=O)c3ccc(-c4ccccc4)cc3)[C@@H]3O[C@@]4(C)CC[C@@H]1[C@@]23OO4: 0
- C[C@@H]1CC[C@H]2[C@@H](C)C(=O)N(/N=C/c3ccc(-c4ccccc4)cc3)[C@@H]3O[C@@]4(C)CC[C@@H]1[C@@]23OO4: 80
- Cc1ccc(/C=N/N2C(=O)[C@H](C)[C@@H]3CC[C@@H](C)[C@@H]4CC[C@@]5(C)OO[C@]43[C@H]2O5)cc1: 0
- C[C@@H]1CC[C@H]2[C@@H](C)C(=O)N(/N=C/c3ccc4c(c3)Cc3ccccc3-4)[C@@H]3O[C@@]4(C)CC[C@@H]1[C@@]23OO4: 0

Could you now look at the following compound, please?
Prompt: Read the entry C[C@@H]1CC[C@H]2[C@@H](C)C(=O)N(NCc3ccc(-c4ccccc4)cc3)[C@@H]3O[C@@]4(C)CC[C@@H]1[C@@]23OO4 and write its reported Activity.
Completion: 20
